Ref: patent US20080292736A1

assay: Enhancement of bioavailability of drugs given to rats with bioenhancers (plasma drug level by HPLC); details: drug with Carum carvi bioenhancer (aqueous or 50% alcoholic extract 30 mg/kg or Fraction No. 1 15 mg/kg), drug dose mg/kg
Measurement Kind: % Enhancement in bioavailability, BE from Carum carvi

Compound: CCOC(=O)C1=C(COCCN)NC(C)=C(C(=O)OC)C1c1ccccc1Cl (stereo not drawn)
Endpoint Value: Nil
//
Compound: CN(Cc1cc(Br)cc(Br)c1N)C1CCCCC1
Endpoint Value: Nil
//
Compound: COc1cccc2c1C(=O)c1c(O)c3c(c(O)c1C2=O)C[C@@](O)(C(=O)CO)C[C@@H]3O[C@H]1C[C@H](N)[C@H](O)[C@H](C)O1
Endpoint Value: Nil

###

experiment: Enhancement of bioavailability of drugs given to rats with bioenhancers (plasma drug level by HPLC); conditions: drug with Zingiber officinale 50% alcoholic extract of fresh ginger 35 mg/kg, drug dose as in row
Measurement Kind: % Enhancement in bioavailability, BE from Zingiber officinale

Structure As Smiles: [Zn]
Endpoint Value: nil

Structure As Smiles: O=C(CCCN1CCC(O)(c2ccc(Cl)cc2)CC1)c1ccc(F)cc1
Endpoint Value: Nil

Structure As Smiles: CO/N=C(\C(=O)N[C@@H]1C(=O)N2C(C(=O)O)=C(CSc3nc(=O)c(O)nn3C)CS[C@H]12)c1csc(N)n1
Endpoint Value: Nil

Structure As Smiles: C[C@@H]1[C@H](O)[C@@H](C)/C=C/C=C/C=C/C=C/C=C/C=C/C=C/[C@H](O[C@@H]2O[C@H](C)[C@@H](O)[C@H](N)[C@@H]2O)C[C@@H]2O[C@](O)(C[C@@H](O)C[C@@H](O)[C@H](O)CC[C@@H](O)C[C@@H](O)CC(=O)O[C@H]1C)C[C@H](O)[C@H]2C(=O)O
Endpoint Value: Nil

###

experiment: Enhancement of bioavailability of drugs given to rats with bioenhancers (plasma drug level by HPLC); conditions: drug with Carum carvi bioenhancer and piperine 8 mg/kg, drug dose as in row
Measured % Enhancement in bioavailability, Carum carvi + Piperine, listed per entry for reference.
Measurement Kind: % Enhancement in bioavailability, Carum carvi + Piperine (%)

Structure As Smiles: Cn1c(=O)c2[nH]cnc2n(C)c1=O
Reading Unit: %
Endpoint Value: 79
--
Structure As Smiles: CO/N=C(\C(=O)N[C@@H]1C(=O)N2C(C(=O)O)=C(CSc3nc(=O)c(O)nn3C)CS[C@H]12)c1csc(N)n1
Reading Unit: %
Endpoint Value: 78

###

conditions: rat, in vivo, 30 mg/kg
Measurement Kind: % Enhancement in bioavailability, Carum carvi (Cc) Extr.

Structure As Smiles: Nc1nc2ncc(CNc3ccc(C(=O)N[C@@H](CCC(=O)O)C(=O)O)cc3)nc2c(=O)[nH]1
Endpoint Value: Nil
//
Structure As Smiles: [Cu]
Endpoint Value: nil
//
Structure As Smiles: [Se]
Endpoint Value: Nil
//
Structure As Smiles: O=C1O[C@H]([C@@H](O)CO)C(O)=C1O
Endpoint Value: Nil

###

experiment: Enhancement of bioavailability of drugs given to rats with bioenhancers (plasma drug level by HPLC); settings: drug with piperine 8 mg/kg, drug dose as in row
Measurement Kind: % Enhancement in bioavailability, Piperine as BE

Compound: CC(C)(C)NCC(O)c1ccc(O)c(CO)c1 (stereo not drawn) [Salbutamol]
Endpoint Value: 60%
--
Compound: C=CC1=C(C(=O)O)N2C(=O)[C@@H](NC(=O)/C(=N\O)c3csc(N)n3)[C@H]2SC1 [Cefidinir]
Endpoint Value: 60%
--
Compound: CN/C(=N/CCSCc1nc[nH]c1C)NC#N [Cimetidine]
Endpoint Value: nil
--
Compound: C[C@@H]1[C@H](O)[C@@H](C)/C=C/C=C/C=C/C=C/C=C/C=C/C=C/[C@H](O[C@@H]2O[C@H](C)[C@@H](O)[C@H](N)[C@@H]2O)C[C@@H]2O[C@](O)(C[C@@H](O)C[C@@H](O)[C@H](O)CC[C@@H](O)C[C@@H](O)CC(=O)O[C@H]1C)C[C@H](O)[C@H]2C(=O)O [Amphotericin B]
Endpoint Value: nil
--
Compound: [Ca+2] [Calcium]
Endpoint Value: nil
--
Compound: CO/N=C(\C(=O)N[C@@H]1C(=O)N2C(C(=O)O)=C(CSc3nc(=O)c(O)nn3C)CS[C@H]12)c1csc(N)n1 [Cefetrioxone]
Endpoint Value: Nil
--
Compound: [Zn] [Zinc]
Endpoint Value: nil
--
Compound: COc1c(C)c2c(c(O)c1C/C=C(\C)CCC(=O)OCCN1CCOCC1)C(=O)OC2 [Mycophenolate Mofeit]
Endpoint Value: nil
--
Compound: O=C(CCCN1CCC(O)(c2ccc(Cl)cc2)CC1)c1ccc(F)cc1 [Haloperidol]
Endpoint Value: nil
--
Compound: CS(=O)(=O)c1ccc(C2=C(c3ccccc3)C(=O)OC2)cc1 [Rofecoxib]
Endpoint Value: nil
--
Compound: [K+] [Potassium]
Endpoint Value: nil
--
Compound: Cc1ncc(CO)c(CO)c1O [Vit B 6]
Endpoint Value: Nil
